Each entry below lists one item and its recorded AC50 value.
Biological target: human Matrix Metalloproteinase-9 (MMP9), MMP9 (gene 4318)
Test: NVS_ENZ_hMMP9: NovaScreen (NVS) Enzymatic Assay for human Matrix Metalloproteinase-9 (MMP9) (AID 2283190);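 also: cell-free recombinant MMP9 protease activity read by fluorescent substrate signal; active means inhibition seen as loss of fluorescence signal versus DMSO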
Experimental: NVS_ENZ_hMMP9 is a biochemical, single-readout assay that uses extracted gene-proteins in a cell-free assay. Measurements were taken 1 hour after chemical dosing in a 96-well plate.NVS_ENZ_hMMP9 is one of one assay component(s) measured or calculated from the NVS_ENZ_hMMP9 assay. […] This assay endpoint, NVS_ENZ_hMMP9, was analyzed in the positive analysis fitting direction relative to DMSO as the negative control and baseline of activity. […]
Results filed as inconclusive are left out. The source made the active and inactive calls. The calls were made as follows: active = hit-call score of the fitted dose curve at least 0.9, where 1 is the maximum; inconclusive = response in the unintended direction; inactive = score below 0.9.

C=CCOCC(O)CO (stereo not given) | 1.68 µM (active)
CCOC(=O)C(=O)OCC | 4.5 µM (active)
Cc1ccc(C(C)(C)O)cc1 | 4.24 µM (active)

Proceeding to the next compound to report its AC50.
Ask: Give its AC50 value. Item: CCCCCCCCCO
Result: 10.6 µM (active)
